target under test: DLK (Homo sapiens, UniProt Q12852)
Construct: 10 nM DLK, catalytic domain, Carna Biosiences; purchased Carna Biosciences ('Carna Biosiences' [sic])
Sequence (Q12852 125-366 limits assumed): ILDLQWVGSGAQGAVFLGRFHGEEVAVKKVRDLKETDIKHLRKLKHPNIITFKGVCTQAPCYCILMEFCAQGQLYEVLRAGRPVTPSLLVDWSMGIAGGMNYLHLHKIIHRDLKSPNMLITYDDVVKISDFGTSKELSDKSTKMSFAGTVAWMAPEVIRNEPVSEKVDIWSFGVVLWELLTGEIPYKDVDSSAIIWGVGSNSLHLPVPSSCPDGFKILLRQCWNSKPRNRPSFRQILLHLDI
procedure details: DLK biochemical assay (TR-FRET, MKK7 phosphorylation)
particulars: DLK catalytic domain, MKK7 substrate, 60 μM ATP
pIC50: −log10 of the molar value.
Note to self: values exactly at 8 are Y. So pIC50 at or above 8 is Y, below is N.

Solved entries (count: 5):
molecule	class
CC[C@H](C)NC(=O)c1cc(-c2cnn(C(c3ccc(C(F)(F)F)nc3)C3CCNCC3)c2)cn2nc(N)nc12 (single isomer, unassigned) [Example I-83]	Y
CCC(c1ccc(C(F)(F)F)nc1)n1cc(-c2cc(C(=O)NC(C)CF)c3nc(N)nn3c2)cn1 (mixture of isomers)	Y
CCC(c1ccc(C(F)F)nc1)n1cc(-c2cc(C(=O)N[C@@H](C)CC)n3nc(N)nc3c2)cn1 (mixture of isomers) [Example I-92]	Y
CC[C@H](C)NC(=O)c1cc(-c2cnn(C(c3ccc(OCC(F)(F)F)nc3)C3CC3)c2)cc2nc(N)nn12 (single isomer, unassigned) [Example I-121]	Y
CC[C@H](C)NC(=O)c1cc(-c2cnn(C3CCOc4ccccc43)c2)cc2nc(N)nn12 (single isomer, unassigned) [Example I-17]	N

Request: Is pIC50 for CC[C@@H](NC(=O)c1cc(-c2cnn(Cc3ccccc3)c2)cn2nc(N)nc12)C(F)(F)F (single isomer, unassigned) at or above 8?
Result: N

Request: I'd appreciate it if you could say whether CC[C@H](C)NC(=O)c1cc(-c2cnn(C(c3ccc(C(F)(F)F)nc3)C3CC3)c2)cc2nc(N)nn12 (mixture of isomers) [Example I-107] has pIC50 at least equal to 8.
Result: Y

Request: Reported pIC50 reaches at least 8 for CC(C)[C@@H](c1ccc(F)cc1)n1cc(-c2cc(C(=O)N[C@@H](C)CO)c3nc(N)nn3c2)cn1 (single isomer, unassigned) ?
Result: Y

Request: Evaluate CC[C@H](C)NC(=O)c1cc(-c2cnn(C3CCN(C(C)C)CC3)c2)cn2nc(N)nc12 (single isomer, unassigned) : pIC50 at minimum 8?
Result: N

Request: Assess whether reported pIC50 for CC[C@H](C)NC(=O)c1cc(-c2cnn(C3CCc4ccccc43)c2)cn2nc(N)nc12 (mixture of isomers) [Example I-13] sits at 8 or higher.
Result: N

Request: Identify whether the reported pIC50 of the following molecule is 8 or greater: CC[C@H](C)NC(=O)c1cc(-c2cnn(C(c3ccccc3)C3CC(F)(F)C3)c2)cn2nc(N)nc12 (mixture of isomers) [Example I-31]
Result: Y

Request: Please tell me: is the molecule CCC(c1ccc(Cl)s1)n1cc(-c2cc(C(=O)N[C@@H](C)CC)c3nc(N)nn3c2)cn1 (mixture of isomers) [Example I-129] at or over 8 in terms of pIC50?
Result: Y

Request: Tell me whether pIC50 is at least 8 here: CCC(c1ccc(C(F)(F)F)nc1)n1cc(-c2cc(C(=O)N[C@@H](C)CC)c3nc(N)nn3c2)cn1 (mixture of isomers)
Result: Y

Request: I'd appreciate it if you could say whether CC[C@H](C)NC(=O)c1cc(-c2cnn(C(c3ccccc3)C(C)(C)C)c2)cn2nc(N)nc12 (single isomer, unassigned) [Example I-35] has pIC50 at least equal to 8.
Result: N

Request: Please tell me: is the molecule CCC(c1ccc(Cl)s1)n1cc(-c2cc(C(=O)N[C@@H](C)CC)c3nc(N)nn3c2)cn1 (single isomer, unassigned) [Example I-130] at or over 8 in terms of pIC50?
Result: N

----------
target under test: LZK (Homo sapiens)
Construct: 10 nM LZK, catalytic domain, Carna Biosiences in assay buffer; purchased Carna Biosciences ('Carna Biosiences' [sic])
procedure details: LZK biochemical assay (TR-FRET, MKK7 phosphorylation)
particulars: LZK catalytic domain, MKK7 substrate, 15 μM ATP
Procedure: LZK assay is a biochemical assay format designed to screen for inhibitors of LZK. Enzymatic activity of LZK is measured by monitoring phosphorylation of the physiological substrate MKK7 (MAP2K7, Dual specificity mitogen-activated protein kinase kinase 7). Phosphorylation is detected by a TR-FRET system whereby His-tagged MKK7 is labeled by a XL665-labeled anti-His antibody (FRET acceptor, emission 665 nm). […]
Checkbox rule: IC50 lower than 8 nM = fulfilled; IC50 not lower than 8 nM = not fulfilled.

As a guide, the following entries are already answered.
compound	class
CCC(c1ccc(OCC(F)(F)F)nc1)n1cc(-c2cc(C(=O)N[C@H]3CCOC3)n3nc(N)nc3c2)cn1 (single isomer, unassigned) [Example I-188]	not fulfilled
CC[C@H](C)NC(=O)c1cc(-c2cnn(C3CN(Cc4ccccc4)C3)c2)cn2nc(N)nc12	not fulfilled
CC[C@H](C)NC(=O)c1cc(-c2cnn([C@H](c3ccc(F)cc3)C(C)C)c2)cn2nc(N)nc12 (single isomer, unassigned)	not fulfilled
CC[C@H](C)NC(=O)c1cc(-c2cnn(Cc3cccc4cn[nH]c34)c2)cc2nc(N)nn12 (single isomer, unassigned)	not fulfilled
CC[C@H](C)NC(=O)c1cc(-c2cnn(C(c3ccc(C(F)F)nc3)C(C)C)c2)cn2nc(N)nc12 (mixture of isomers) [Example I-67]	fulfilled

Then this compound:
Request: Does CC[C@H](C)NC(=O)c1cc(-c2cnn(C3CCc4ccccc43)c2)cn2nc(N)nc12 (mixture of isomers) [Example I-13] have IC50 strictly under 8 nM?
Result: fulfilled

----------
target under test: LZK (Homo sapiens, UniProt O43283)
Construct: 10 nM LZK, catalytic domain, Carna Biosiences in assay buffer; purchased Carna Biosciences ('Carna Biosiences' [sic])
Sequence (O43283 168-409 limits assumed): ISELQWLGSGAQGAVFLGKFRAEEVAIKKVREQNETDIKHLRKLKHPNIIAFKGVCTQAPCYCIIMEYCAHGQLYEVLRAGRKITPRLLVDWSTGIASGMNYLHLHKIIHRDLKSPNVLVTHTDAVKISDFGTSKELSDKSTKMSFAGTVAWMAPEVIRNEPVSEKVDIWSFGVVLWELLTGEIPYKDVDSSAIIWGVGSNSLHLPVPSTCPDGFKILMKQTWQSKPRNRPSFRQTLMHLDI
procedure details: LZK biochemical assay (TR-FRET, MKK7 phosphorylation)
particulars: LZK catalytic domain, MKK7 substrate, 15 μM ATP
reported metric: IC50 (nM)
Give just the numeric value; nM need not be written.

compound	unit abbrev	value reported
CC[C@H](C)NC(=O)c1cc(-c2cnn([C@@H](CC)c3ccc(C(F)F)nc3)c2)cc2nc(N)nn12 (single isomer, unassigned)	nM	1.9

Request: Query IC50 for CCC(c1ccc(OCC(F)(F)F)nc1)n1cc(-c2cc(C(=O)N[C@@H](C)CC)c3nc(N)nn3c2)cn1 (single isomer, unassigned) [Example I-87]
Result: 16

Request: Kindly indicate its recorded IC50. Item: CC[C@H](C)NC(=O)c1cc(-c2cnn(C(c3ccc(C(F)F)nc3)C(C)C)c2)cn2nc(N)nc12 (single isomer, unassigned) [Example I-68]
Result: 43

Request: Note IC50 for the compound shown: CC[C@H](C)NC(=O)c1cc(-c2cnn(C3CCN(CC)CC3)c2)cn2nc(N)nc12 (single isomer, unassigned)
Result: 6.7

----------
# reported pIC50; entries follow
target under test: LZK (Homo sapiens, UniProt O43283)
Construct: 10 nM LZK, catalytic domain, Carna Biosiences in assay buffer; purchased Carna Biosciences ('Carna Biosiences' [sic])
procedure details: LZK biochemical assay (TR-FRET, MKK7 phosphorylation)
In plain terms, pIC50 is the concentration in mol/L turned into minus its base-10 logarithm.

Here are 2 compounds together with their reported answers.
compound	pIC50
Nc1nc2c(-c3ccc(=O)n(C(F)F)c3)cc(-c3cnn(C(c4ccc(C(F)(F)F)nc4)C4CCOCC4)c3)cn2n1 (stereo not drawn) [II-153]	8.46
CCC(c1ccc(C(F)(F)F)nc1)n1cc(-c2cc(-c3ccc(C(F)(F)F)nc3)c3nc(N)nn3c2)cn1 (single isomer, unassigned) [II-39]	7.28

Request: With LZK (Homo sapiens, UniProt O43283) as the test system, provide measured pIC50 for this compound: CC(C)C(c1ccc(C(F)(F)F)nc1)n1cc(-c2cc(-c3ccc(C4CC4)nc3)n3nc(N)nc3c2)cn1 (single isomer, unassigned) [II-60]
Result: 8.10

----------
target under test: DLK (Homo sapiens, UniProt Q12852)
Construct: 10 nM DLK, catalytic domain, Carna Biosiences; purchased Carna Biosciences ('Carna Biosiences' [sic])
procedure details: DLK biochemical assay (TR-FRET, MKK7 phosphorylation)
reported metric: IC50

Answered cases to consult:
compound	value reported
CC(C)C(c1ccc(C(F)(F)F)nc1)n1cc(-c2cc(-c3ccc(C4(O)CCC4)nc3)n3nc(N)nc3c2)cn1 (single isomer, unassigned) [II-82]	42 nM
CCC(c1ccc(C(F)(F)F)nc1)n1cc(-c2cc(-c3cc(CO)ccc3Cl)c3nc(N)nn3c2)cn1 (racemic) [II-1]	6.3 nM

Here is the next item to consider.
Request: # return IC50 for CC[C@@H](c1ccccc1)n1cc(-c2cc(-c3cnn(C(C)C(F)(F)F)c3)c3nc(N)nn3c2)cn1 (single isomer, unassigned) [II-96] , test system: DLK (Homo sapiens, UniProt Q12852)
Result: 17 nM
